experimental_system: T1, recombinant human IL-1α (human, UniProt P01583 113-271)
T1 construct: also called hIL-1α; rh IL-1α
T1 sequence: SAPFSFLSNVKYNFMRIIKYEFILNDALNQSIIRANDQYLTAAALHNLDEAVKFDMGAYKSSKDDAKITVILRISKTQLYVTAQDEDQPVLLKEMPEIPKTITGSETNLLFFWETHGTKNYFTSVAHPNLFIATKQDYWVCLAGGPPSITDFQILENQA
test_summary: ELISA, antibody captured by anti-human Fc, biotinylated human IL-1α titrated
recorded_endpoint: EC50 (nM)
Numeric answer only, unit nM assumed.

h3D12.16 (antibody, V domains shown, also called humanized 3D12 antibody h3D12.16; VH H3D12VH.2A / VL H3D12VK.1C) VH: EIQLVQSGAEVKKPGASVKVSCKASGYTFTNYGMNWVRQAPGQDLERMAWINTYTGESTYADDFKGRFTFTLDTSTSTAYMELSSLRSEDTAVYFCARGIYYYGSSYAMDYWGQGTTVTVSS VL: DIQMTQSPSSLSASVGDRVTITCRASQDISNCLNWYQQKPGKTPKLLIYYTSRLHSGVPSRFSGSGSGTDYTFTISSLQPEDIATYFCQQGKTLPYAFGQGTKLEIK	0.01
h3D12.r16 (antibody, V domains shown) VH: EVQLVQSGAEVKKPGASVKVSCKASGYTFKYYGMNWVRQAPGQGLERMGWINTYTGQSTYADDFKGRVTFTLDTSTSTAYMELSSLRSEDTAVYYCARDIYYYGSDFAMDYWGQGTTVTVSS VL: DIQMTQSPSSLSASVGDRVTITCRASQDISNMLNWYQQKPGKAPKLLIYYTSRLKPGVPSRFSGSGSGTDYTFTISSLQPEDIATYFCQQGKTAPYTFGQGTKLEIK	0.072
h3D12-362-10/372-15 (antibody, V domains shown) VH: EVQLVQSGAEVKKPGVSVKVSCKASGYTFTTYGMHWVRQAPGQGLEWMGWINTYTGESTYADDFQGRVTFTLDTSTSTAYMELSSLRSEDTAVYFCARGIYYYGSSYAMNYWGQGTTVTVSS VL: DIQMTQSPSSLSASVGDRVTITCRASQDISNMLNWYQQKPGKTPKLLIYYTSRLYPGVPSRFSGSGSGTDYTFTISSLQPEDIATYFCQQGKTLPYAFGQGTKLEIK	0.007
h3D12.r10 (antibody, V domains shown) VH: EIQLVQSGAEVKKPGASVKVSCKASGYTFAHYGMNWVRQAPGQGLEWMGWINTYTGQSTYADDFKGRFTFTLDTSTSTAYMELSSLRSEDTAVYYCARGIYYFGSNYAMDYWGQGTTVTVSS VL: DIQMTQSPSSLSASVGDRVTITCRASQDISNMLNWYQQKPGKTPKLLIYYTSRLRSGVPSRFSGSGSGTDYTFTISSLQPEDIATYFCQQGKKPPYTFGQGTKLEIK	0.0692
h3D12.8 (antibody, V domains shown, also called humanized 3D12 antibody h3D12.8; VH H3D12VH.1A / VL H3D12VK.1C) VH: EIQLVQSGSELKKPGASVKVSCKASGYTFTNYGMNWVRQAPGQDLERMAWINTYTGESTYADDFKGRFVFSLDTSVSTAYLQISSLKAEDTAVYFCARGIYYYGSSYAMDYWGQGTTVTVSS VL: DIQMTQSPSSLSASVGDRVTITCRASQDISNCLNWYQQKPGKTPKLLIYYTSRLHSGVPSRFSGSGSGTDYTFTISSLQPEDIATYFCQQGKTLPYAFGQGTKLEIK	0.028

# input for lookup
Requested read-out: EC50. Entry: h3D12.r37 (antibody, V domains shown) VH: EIQLVQSGAEVKKPGASVKVSCKASGYTFKYYGMNWVRQAPGQGLERMGWINTYTGESRYADDFKGRVTFTLDTSTSTAYMELSSLRSEDTAVYYCARDIYYFGSDYAMDYWGQGTTVTVSS VL: DIQMTQSPSSLSASVGDRVTITCRASQDISNRLNWYQQKPGKAPKLLIYYASRLKPGVPSRFSGSGSGTDYTFTISSLQPEDIATYFCQQGNTPPYTFGQGTKLEIK 0.114
